assay: Inhibition of PDHK (unknown origin); design: species or system Homo sapiens
Endpoint label: IC50 (µM)
Give bare numbers, in µM.

Query: For the compound shown here, C[C@@H]1C[C@H]2O[C@@H]2/C=C\C=C\C(=O)Cc2c(Cl)c(O)cc(O)c2C(=O)O1 , give the reported IC50.
Response: 1200

---

Could you please report measured pIC50 for the items listed next?
target: [Pyruvate dehydrogenase (acetyl-transferring)] kinase isozyme 2, mitochondrial (Homo sapiens)
Give bare numbers, as −log10 of the molar value.

Hey, quick one: what's pIC50 for each of these?
1. COc1ccc(N(C)C(=O)c2ccc(O)cc2O)cc1
2. CN(C)C(=O)c1ccc(N(C)C(=O)c2ccc(O)cc2O)cc1
3. CCNC(=O)CN(C(=O)c1ccc(O)cc1O)c1ccc(OC)cc1
4. CCN(CC)CCN(C(=O)c1ccc(O)cc1O)c1ccc(OC)cc1

Response:
1: 5.65; 2: 6.46; 3: 5.35; 4: 5.56

---

biological target: [Pyruvate dehydrogenase (acetyl-transferring)] kinase isozyme 1, mitochondrial (Homo sapiens, UniProt Q15118); test: Inhibition of PDHK1 (unknown origin) assessed as decrease in phosphorylation of E1alpha subunit at serine 293 residue after 1 hr by DELFIA
Sequence (Q15118 whole entry): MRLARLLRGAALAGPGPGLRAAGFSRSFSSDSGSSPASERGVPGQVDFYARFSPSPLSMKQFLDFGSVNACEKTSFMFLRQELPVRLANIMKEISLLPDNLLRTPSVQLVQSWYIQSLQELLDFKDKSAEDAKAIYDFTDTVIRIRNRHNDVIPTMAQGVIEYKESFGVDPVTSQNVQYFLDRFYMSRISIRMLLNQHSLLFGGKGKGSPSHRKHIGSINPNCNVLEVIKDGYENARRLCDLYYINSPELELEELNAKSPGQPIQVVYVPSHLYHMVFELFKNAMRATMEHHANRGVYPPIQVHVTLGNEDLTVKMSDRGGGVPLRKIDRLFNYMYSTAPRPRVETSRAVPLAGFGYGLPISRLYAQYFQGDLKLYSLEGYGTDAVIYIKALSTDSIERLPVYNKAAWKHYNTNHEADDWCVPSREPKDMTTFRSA
Could you please report measured pIC50 for the items listed next?
Answers are plain numbers, as −log10 of the molar value.

Worked examples follow.
C[C@H]1CCc2cc(-c3nc(Cl)nc4ccsc34)ccc2N1C(=O)c1ccc(O)cc1O | 6.70
C[C@H]1CCc2cc(C(=O)N(C)Cc3ccc4nccnc4c3)ccc2N1C(=O)c1ccc(O)cc1O | 7.44
Cc1cnc(Cl)nc1-c1ccc2c(c1)CC[C@H](C)N2C(=O)c1ccc(O)cc1O | 7.20
COc1ccc(CN(C)C(=O)c2ccc(N(Cc3ccccc3)C(=O)c3ccc(O)cc3O)cc2)cc1 | 6.70
CN(Cc1ccc2nccnc2c1)C(=O)c1ccc(N(Cc2ccccc2)C(=O)c2ccc(O)cc2O)cc1 | 7.20
Cc1cnc(Cl)nc1-c1ccc(N(Cc2ccc(CN3CCCC3)cc2)C(=O)c2ccc(O)cc2O)cc1 | 7.00
Cc1cnc(Cl)nc1-c1ccc(N(Cc2ccccc2)C(=O)c2ccc(O)cc2O)cc1 | 7.14
Cc1cc2ccccc2nc1-c1ccc2c(c1)CC[C@H](C)N2C(=O)c1ccc(O)cc1O | 6.86

Hey, quick one: what's pIC50 for each of these?
1. C[C@H]1CCc2cc(-c3nc(Cl)nc4[nH]ccc34)ccc2N1C(=O)c1ccc(O)cc1O
2. O=S(=O)(c1ccc(O)cc1O)N1Cc2cc(O)cc(O)c2C1
3. Cc1cnc(Cl)nc1-c1ccc2c(c1)CC[C@H](c1cccnc1)N2C(=O)c1ccc(O)cc1O

Response:
6.87
5.68
7.82

---

target: [Pyruvate dehydrogenase (acetyl-transferring)] kinase isozyme 1, mitochondrial (Homo sapiens, UniProt Q15118); assay: Binding affinity to PDHK1 (unknown origin) by surface plasmon resonance method
Endpoint label: pKd
Numbers only, as −log10 of the molar value.

Cc1cnc(Cl)nc1-c1ccc2c(c1)CC[C@H](c1cccnc1)N2C(=O)c1ccc(O)cc1O | 8.00
Cc1cnc(Cl)nc1-c1ccc(N(Cc2ccccc2)C(=O)c2ccc(O)cc2O)cc1 | 7.80
Cc1cnc(Cl)nc1-c1ccc(N(Cc2ccc(CN3CCCC3)cc2)C(=O)c2ccc(O)cc2O)cc1 | 7.11
Cc1cc2ccccc2nc1-c1ccc2c(c1)CC[C@H](C)N2C(=O)c1ccc(O)cc1O | 6.94
C[C@H]1CCc2cc(C(=O)N(C)Cc3ccc4nccnc4c3)ccc2N1C(=O)c1ccc(O)cc1O | 8.22
COc1ccc(CN(C)C(=O)c2ccc(N(Cc3ccccc3)C(=O)c3ccc(O)cc3O)cc2)cc1 | 8.00
Cc1cnc(Cl)nc1-c1ccc2c(c1)CC[C@H](C)N2C(=O)c1ccc(O)cc1O | 7.72
C[C@H]1CCc2cc(-c3nc(Cl)nc4[nH]ccc34)ccc2N1C(=O)c1ccc(O)cc1O | 8.05
C[C@H]1CCc2cc(-c3nc(Cl)nc4ccsc34)ccc2N1C(=O)c1ccc(O)cc1O | 8.00

Query: For the compound shown here, CN(Cc1ccc2nccnc2c1)C(=O)c1ccc(N(Cc2ccccc2)C(=O)c2ccc(O)cc2O)cc1 , give the reported pKd.
Response: 9.00

---

target: [Pyruvate dehydrogenase (acetyl-transferring)] kinase isozyme 1, mitochondrial (Homo sapiens)
Endpoint label: Ki (nM)
Give bare numbers, in nM.

Worked examples follow.
Cc1cnc(Cl)nc1-c1ccc(N(Cc2ccc(CN3CCCC3)cc2)C(=O)c2ccc(O)cc2O)cc1 | 37
O=C(c1ccc(O)cc1O)N(Cc1ccccc1)c1ccccc1 | 980

Hey, quick one: what's Ki for each of these?
1. Cc1cnc(Cl)nc1-c1ccc2c(c1)CC[C@H](C)N2C(=O)c1ccc(O)cc1O
2. CN(C(=O)c1ccc(O)cc1O)c1ccc(C(=O)N2CC(C(=O)O)Oc3ccccc32)cc1 (stereo unspecified)

Response:
1: 37; 2: 260

Hey, quick one: what's Ki for each of these?
1. CC1CCc2cc(F)ccc2N1C(=O)c1ccc(O)cc1O (racemic)
2. CN(Cc1ccc2nccnc2c1)C(=O)c1ccc(N(Cc2ccccc2)C(=O)c2ccc(O)cc2O)cc1

Response:
1. 200
2. 26

---

molecular target: [Pyruvate dehydrogenase (acetyl-transferring)] kinase isozyme 1, mitochondrial (Homo sapiens, UniProt Q15118); experiment: Inhibition of PDHK1 in human PC3 cells assessed as decrease in phosphorylation of E1alpha subunit at serine 293 residue after 1 hr by ELISA; assay type: cell-based
Endpoint label: IC50 (µM)
Numbers only, in µM.

C[C@H]1CCc2cc(C(=O)N(C)Cc3ccc4nccnc4c3)ccc2N1C(=O)c1ccc(O)cc1O | 3.01

Hey, quick one: what's IC50 for each of these?
1. C[C@H]1CCc2cc(-c3nc(Cl)nc4ccsc34)ccc2N1C(=O)c1ccc(O)cc1O
2. Cc1cnc(Cl)nc1-c1ccc2c(c1)CC[C@H](C)N2C(=O)c1ccc(O)cc1O
3. COc1ccc(CN(C)C(=O)c2ccc(N(Cc3ccccc3)C(=O)c3ccc(O)cc3O)cc2)cc1

Response:
[2.78, 2.74, 10.6]

Hey, quick one: what's IC50 for each of these?
1. C[C@H]1CCc2cc(-c3nc(Cl)nc4[nH]ccc34)ccc2N1C(=O)c1ccc(O)cc1O
2. Cc1cnc(Cl)nc1-c1ccc2c(c1)CC[C@H](c1cccnc1)N2C(=O)c1ccc(O)cc1O
3. CN(C)C(=O)c1ccc(S(=O)(=O)c2ccc(NC(=O)[C@@](C)(O)C(F)(F)F)c(Cl)c2)cc1
4. C[C@@H]1CN(C(=O)[C@@](C)(O)C(F)(F)F)[C@@H](C)CN1C(=O)c1ccc(C#N)cc1

Response:
1.82
5.77
0.041
0.066

Hey, quick one: what's IC50 for each of these?
1. Cc1cnc(Cl)nc1-c1ccc(N(Cc2ccc(CN3CCCC3)cc2)C(=O)c2ccc(O)cc2O)cc1
2. CN(Cc1ccc2nccnc2c1)C(=O)c1ccc(N(Cc2ccccc2)C(=O)c2ccc(O)cc2O)cc1
3. Cc1cnc(Cl)nc1-c1ccc(N(Cc2ccccc2)C(=O)c2ccc(O)cc2O)cc1
4. Cc1cc2ccccc2nc1-c1ccc2c(c1)CC[C@H](C)N2C(=O)c1ccc(O)cc1O

Response:
[2.15, 5.65, 1.72, 2.68]

---

target: Heat shock protein HSP 90-alpha (Homo sapiens, UniProt P07900)
Endpoint label: pIC50
Numbers only, as −log10 of the molar value.

Query: Requested read-out pIC50, target or system Heat shock protein HSP 90-alpha (Homo sapiens, UniProt P07900), entry COc1ccc(N(C)C(=O)c2ccc(O)cc2O)cc1
Response: 5.52

---

target: UniProtKB Q15118
Binned Ki; ranges: category 1: < 100 nM; category 2: ≥ 100 nM and < 500 nM; category 3: ≥ 500 nM

Known results for compounds:
C[C@H]1CCc2cc(-c3nc(Cl)nc4[nH]ccc34)ccc2N1C(=O)c1ccc(O)cc1O | category 3
COc1ccc(N(C)C(=O)c2ccc(O)cc2O)cc1 | category 3
COc1ccc(CN(C)C(=O)c2ccc(N(Cc3ccccc3)C(=O)c3ccc(O)cc3O)cc2)cc1 | category 2
C[C@@H]1CCc2cc(F)ccc2N1C(=O)c1ccc(O)cc1O | category 3

Query: Which bin should I file C[C@H]1CCc2cc(-c3nc(Cl)nc4ccsc34)ccc2N1C(=O)c1ccc(O)cc1O under?
Response: category 2

Query: Do the same for CCNC(=O)c1noc(-c2cc(Cl)c(O)cc2O)c1-c1ccc(CN2CCOCC2)cc1C please
Response: category 2

Query: Do the same for Cc1cc2ccccc2nc1-c1ccc2c(c1)CC[C@H](C)N2C(=O)c1ccc(O)cc1O please
Response: category 2

Query: Do the same for Cc1cnc(Cl)nc1-c1ccc(N(Cc2ccccc2)C(=O)c2ccc(O)cc2O)cc1 please
Response: category 1

Query: Do the same for C[C@H]1CCc2cc(F)ccc2N1C(=O)c1ccc(O)cc1O please
Response: category 1

Query: Do the same for C[C@H]1CCc2cc(C(=O)N(C)Cc3ccc4nccnc4c3)ccc2N1C(=O)c1ccc(O)cc1O please
Response: category 1
